Source of measurements: paper PMC5223167

Target desc: T1, PPE2 (Mycobacterium tuberculosis (BAC-Rv329 …, UniProt P9WI47))
T1 sequence: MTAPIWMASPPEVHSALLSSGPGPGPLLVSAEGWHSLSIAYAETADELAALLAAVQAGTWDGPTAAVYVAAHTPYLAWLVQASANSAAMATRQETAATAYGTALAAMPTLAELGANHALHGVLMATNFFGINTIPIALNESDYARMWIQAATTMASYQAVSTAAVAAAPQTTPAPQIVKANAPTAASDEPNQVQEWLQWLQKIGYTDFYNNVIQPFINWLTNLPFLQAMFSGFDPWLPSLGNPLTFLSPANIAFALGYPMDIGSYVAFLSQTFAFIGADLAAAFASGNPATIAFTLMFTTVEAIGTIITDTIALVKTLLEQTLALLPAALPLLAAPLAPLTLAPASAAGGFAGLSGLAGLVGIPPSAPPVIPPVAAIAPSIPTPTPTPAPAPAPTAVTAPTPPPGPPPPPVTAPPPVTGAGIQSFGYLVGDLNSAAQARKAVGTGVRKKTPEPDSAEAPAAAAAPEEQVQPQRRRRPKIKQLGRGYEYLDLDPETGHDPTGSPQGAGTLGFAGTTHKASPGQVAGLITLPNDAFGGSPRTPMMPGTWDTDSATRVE
Test method notes: EMSA; 20 mM HEPES (pH not stated), 0.5 mM DTT, 0.5 mM EDTA, 5% glycerol, room temperature, 30 min; […]
Setup conditions: protein: recombinant; tags: N-terminal His (pRSET A); label: 32P 5' end; blunt
Readout label: binding result

>>> observed_result("inos proximal GATA-1 element (overlaps TATA box) (dsDNA) DNA 1: GGGGTATAAATACCTGATGGCTGCTGCCAG DNA 2: CTGGCAGCAGCCATCAGGTATTTATACCCC")
"binds"
>>> observed_result("GATA consensus (dsDNA) DNA 1: CACTTGATAACAGAAAGTGATAACTCT DNA 2: AGAGTTATCACTTTCTGTTATCAAGTG")
"binds"
>>> observed_result("NF-kB consensus (dsDNA) DNA 1: AGTTGAGGGGACTTTCCCAGGC DNA 2: GCCTGGGAAAGTCCCCTCAACT")
"no binding"
>>> observed_result("IRF-1 consensus (dsDNA) DNA 1: CACTGTCAATATTTCACTTTCATAATG DNA 2: CATTATGAAAGTGAAATATTGACAGTG")
"no binding"
